Test system: 565726-208-R1-J5-PDC complex spheroids, growth inhibition
test_name: Anticancer human tumor 565726-208-R1-J5-PDC patient-derived pancreatic adenocarcinoma cell line growth inhibition [RAS]
condition_description: curve of first compound; second compound 10 µM
Recorded measurements of IC50, one per entry

compound	modifier_sign	IC50 (nM)
CC1(O)CCCC1n1c(=O)c(C(F)F)cc2cnc(NC3CCN(S(C)(=O)=O)CC3)nc21 (centres undefined) + C#Cc1c(F)ccc2cc(O)cc(-c3ncc4c(N5CC6CCC(C5)N6)nc(OCC56CCCN5CC(F)C6)nc4c3F)c12	=	606
CC(=O)OC12COC1CC(O)C1(C)C(=O)C(O)C3=C(C)C(OC(=O)C(O)C(NC(=O)OC(C)(C)C)c4ccccc4)CC(O)(C(OC(=O)c4ccccc4)C21)C3(C)C (centres undefined) + C#Cc1c(F)ccc2cc(O)cc(-c3ncc4c(N5CC6CCC(C5)N6)nc(OCC56CCCN5CC(F)C6)nc4c3F)c12	<	31.6
CC(Nc1ccc2c(c1)OCCn1cc(N3C(=O)OCC3C(F)F)nc1-2)C(N)=O (centres undefined) + C#Cc1c(F)ccc2cc(O)cc(-c3ncc4c(N5CC6CCC(C5)N6)nc(OCC56CCCN5CC(F)C6)nc4c3F)c12	=	527
CC1(C)CCC(Nc2ncc(C(F)(F)F)c(-c3c[nH]c4c(P(C)(C)=O)c(C#N)ccc34)n2)CN1 (centres undefined) + C#Cc1c(F)ccc2cc(O)cc(-c3ncc4c(N5CC6CCC(C5)N6)nc(OCC56CCCN5CC(F)C6)nc4c3F)c12	=	2.98

###

System: 565726-208-R1-J5-PDC complex spheroids, growth inhibition
test_name: Anticancer human tumor 565726-208-R1-J5-PDC cell line growth inhibition [RAS];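 note: spheroids exposed to compounds for seven days before readout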;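 for viability, T/C: 100% = DMSO vehicle control viability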
condition_description: second compound 0.316 µM; first compound 0.003 µM; stronger effect = lower value
Recorded measurements of viability, T/C, one per entry
measure_name: viability, T/C (%)

compound	target_entity	measurement_units	test_result
CC1(C)CCC(Nc2ncc(C(F)(F)F)c(-c3c[nH]c4c(P(C)(C)=O)c(C#N)ccc34)n2)CN1 (centres undefined) + C=CC(=O)N1CCN(c2nc(OCC3CCCN3C)nc3c(F)c(-c4nc(N)cc(C)c4C(F)(F)F)c(Cl)cc23)C(C)C1	565726-208-R1-J5-PDC complex spheroids, growth inhibition	%	67.3
CC1(C)CCC(Nc2ncc(C(F)(F)F)c(-c3c[nH]c4c(P(C)(C)=O)c(C#N)ccc34)n2)CN1 (centres undefined) + C#Cc1c(F)ccc2cc(O)cc(-c3ncc4c(N5CC6CCC(C5)N6)nc(OCC56CCCN5CC(F)C6)nc4c3F)c12	565726-208-R1-J5-PDC complex spheroids, growth inhibition	%	68.5
CCc1c2c(nc3ccc(O)cc13)-c1cc3c(c(=O)n1C2)COC(=O)[C@]3(O)CC + C#Cc1c(F)ccc2cc(O)cc(-c3ncc4c(N5CC6CCC(C5)N6)nc(OCC56CCCN5CC(F)C6)nc4c3F)c12	565726-208-R1-J5-PDC complex spheroids, growth inhibition	%	56.2
CCc1c2c(nc3ccc(O)cc13)-c1cc3c(c(=O)n1C2)COC(=O)[C@]3(O)CC + C=CC(=O)N1CCN(c2nc(OCC3CCCN3C)nc3c(F)c(-c4nc(N)cc(C)c4C(F)(F)F)c(Cl)cc23)C(C)C1	565726-208-R1-J5-PDC complex spheroids, growth inhibition	%	53

###

Recorded measurements of viability, T/C, one per entry
Tested on: 565726-208-R1-J5-PDC complex spheroids, growth inhibition
test_name: Anticancer human tumor 565726-208-R1-J5-PDC cell line growth inhibition [RAS];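 note: spheroids exposed to compounds for seven days before readout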;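 for viability, T/C: 100% = DMSO vehicle control viability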
condition_description: second compound 0.3 µM; first compound 0.003 µM; stronger effect = lower value

molecule	viability, T/C [%]
CCc1c2c(nc3ccc(O)cc13)-c1cc3c(c(=O)n1C2)COC(=O)[C@]3(O)CC + CCn1c(-c2cc(N3CCN(C)CC3)cnc2C(C)OC)c2c3cc(ccc31)-c1csc(n1)CC(NC(=O)C1CC1C)C(=O)N1CCCC(N1)C(=O)OCC(C)(C)C2	20.8
CCc1c2c(nc3ccc(O)cc13)-c1cc3c(c(=O)n1C2)COC(=O)[C@]3(O)CC + CCn1c(-c2cccnc2C(C)OC)c2c3cc(ccc31)N1CCOC(CC(NC(=O)C(C(C)C)N(C)C(=O)C3(F)CCN(C(=O)C#CC(C)(C)N(C)C)CC3)C(=O)N3CCCC(N3)C(=O)OCC(C)(C)C2)C1	30
CC1(C)CCC(Nc2ncc(C(F)(F)F)c(-c3c[nH]c4c(P(C)(C)=O)c(C#N)ccc34)n2)CN1 (centres undefined) + CCn1c(-c2cc(N3CCN(C)CC3)cnc2C(C)OC)c2c3cc(ccc31)-c1csc(n1)CC(NC(=O)C1CC1C)C(=O)N1CCCC(N1)C(=O)OCC(C)(C)C2	23.4
CC1(C)CCC(Nc2ncc(C(F)(F)F)c(-c3c[nH]c4c(P(C)(C)=O)c(C#N)ccc34)n2)CN1 (centres undefined) + CCn1c(-c2cccnc2C(C)OC)c2c3cc(ccc31)N1CCOC(CC(NC(=O)C(C(C)C)N(C)C(=O)C3(F)CCN(C(=O)C#CC(C)(C)N(C)C)CC3)C(=O)N3CCCC(N3)C(=O)OCC(C)(C)C2)C1	35.6

###

Recorded measurements of pIC50, one per entry
Tested on: 565726-208-R1-J5-PDC complex spheroids, growth inhibition
test_name: Anticancer human tumor 565726-208-R1-J5-PDC cell line growth inhibition [RAS];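 note: spheroids exposed to compounds for seven days before readout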
condition_description: curve of first compound; second compound 0.003 µM
Text: RAS pathway inhibitors in Combinations in Complex Spheroids A high-throughput screen of multi-cell type tumor spheroids was designed to identify active combinations of RAS pathway inhibitors and targeted small molecules. Complex spheroids include a stromal component modeled by human endothelial cells (HUVEC) and fibroblasts modeled by human mesenchymal stem cells (MSCs). […] Compounds. […] If the clinical Cmax for an agent had not been determined, the highest concentration tested was 10 microM. […]
pIC50: −log10 of the molar value.

compound	target_entity	modifier_sign	pIC50
C=CC(=O)Nc1cc(Nc2nccc(-c3cn(C)c4ccccc34)n2)c(OC)cc1N(C)CCN(C)C + CCn1c(-c2cccnc2C(C)OC)c2c3cc(ccc31)N1CCOC(CC(NC(=O)C(C(C)C)N(C)C(=O)C3(F)CCN(C(=O)C#CC(C)(C)N(C)C)CC3)C(=O)N3CCCC(N3)C(=O)OCC(C)(C)C2)C1	565726-208-R1-J5-PDC complex spheroids, growth inhibition	<	6.00
CC(=O)OC12COC1CC(O)C1(C)C(=O)C(O)C3=C(C)C(OC(=O)C(O)C(NC(=O)OC(C)(C)C)c4ccccc4)CC(O)(C(OC(=O)c4ccccc4)C21)C3(C)C (centres undefined) + CCn1c(-c2cc(N3CCN(C)CC3)cnc2C(C)OC)c2c3cc(ccc31)-c1csc(n1)CC(NC(=O)C1CC1C)C(=O)N1CCCC(N1)C(=O)OCC(C)(C)C2	565726-208-R1-J5-PDC complex spheroids, growth inhibition	>	7.50
CC(C)NCC(C(=O)N1CCN(c2ncnc3c2C(C)CC3O)CC1)c1ccc(Cl)cc1 (centres undefined) + CCn1c(-c2cc(N3CCN(C)CC3)cnc2C(C)OC)c2c3cc(ccc31)-c1csc(n1)CC(NC(=O)C1CC1C)C(=O)N1CCCC(N1)C(=O)OCC(C)(C)C2	565726-208-R1-J5-PDC complex spheroids, growth inhibition	=	6.46
CCc1c2c(nc3ccc(O)cc13)-c1cc3c(c(=O)n1C2)COC(=O)[C@]3(O)CC + CCn1c(-c2cccnc2C(C)OC)c2c3cc(ccc31)N1CCOC(CC(NC(=O)C(C(C)C)N(C)C(=O)C3(F)CCN(C(=O)C#CC(C)(C)N(C)C)CC3)C(=O)N3CCCC(N3)C(=O)OCC(C)(C)C2)C1	565726-208-R1-J5-PDC complex spheroids, growth inhibition	=	8.68

###

Tested on: 565726-208-R1-J5-PDC complex spheroids, growth inhibition
test_name: Anticancer human tumor 565726-208-R1-J5-PDC cell line growth inhibition [RAS];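 note: spheroids exposed to compounds for seven days before readout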
condition_description: curve of first compound; second compound 0.0949 µM

molecule	IC50
CC(Nc1ccc2c(c1)OCCn1cc(N3C(=O)OCC3C(F)F)nc1-2)C(N)=O (stereo not drawn) + CCn1c(-c2cccnc2C(C)OC)c2c3cc(ccc31)N1CCOC(CC(NC(=O)C(C(C)C)N(C)C(=O)C3(F)CCN(C(=O)C#CC(C)(C)N(C)C)CC3)C(=O)N3CCCC(N3)C(=O)OCC(C)(C)C2)C1	7.05 µM
C=CC(=O)N1CCN(c2nc(OCC3CCCN3C)nc3c(F)c(-c4nc(N)cc(C)c4C(F)(F)F)c(Cl)cc23)C(C)C1 (stereo not drawn) + CCn1c(-c2cccnc2C(C)OC)c2c3cc(ccc31)N1CCOC(CC(NC(=O)C(C(C)C)N(C)C(=O)C3(F)CCN(C(=O)C#CC(C)(C)N(C)C)CC3)C(=O)N3CCCC(N3)C(=O)OCC(C)(C)C2)C1	> 1 µM
CC1(C)CCC(Nc2ncc(C(F)(F)F)c(-c3c[nH]c4c(P(C)(C)=O)c(C#N)ccc34)n2)CN1 (stereo not drawn) + CCn1c(-c2cc(N3CCN(C)CC3)cnc2C(C)OC)c2c3cc(ccc31)-c1csc(n1)CC(NC(=O)C1CC1C)C(=O)N1CCCC(N1)C(=O)OCC(C)(C)C2	< 0.000949 µM
Nc1ccn(C2OC(CO)C(O)C2(F)F)c(=O)n1 (stereo not drawn) + CCn1c(-c2cc(N3CCN(C)CC3)cnc2C(C)OC)c2c3cc(ccc31)-c1csc(n1)CC(NC(=O)C1CC1C)C(=O)N1CCCC(N1)C(=O)OCC(C)(C)C2	< 0.00316 µM
C[C@@H](NC(=O)c1ncnc(N)c1Cl)c1ncc(C(=O)Nc2cc(C(F)(F)F)c(Cl)cn2)s1 + CCn1c(-c2cccnc2C(C)OC)c2c3cc(ccc31)N1CCOC(CC(NC(=O)C(C(C)C)N(C)C(=O)C3(F)CCN(C(=O)C#CC(C)(C)N(C)C)CC3)C(=O)N3CCCC(N3)C(=O)OCC(C)(C)C2)C1	> 10 µM
CCc1c2c(nc3ccc(O)cc13)-c1cc3c(c(=O)n1C2)COC(=O)[C@]3(O)CC + CCn1c(-c2cc(N3CCN(C)CC3)cnc2C(C)OC)c2c3cc(ccc31)-c1csc(n1)CC(NC(=O)C1CC1C)C(=O)N1CCCC(N1)C(=O)OCC(C)(C)C2	< 0.000949 µM
Cc1nc(N2CCC3(CC2)COC(C)C3N)c(CO)nc1Sc1ccnc(N)c1Cl (stereo not drawn) + CCn1c(-c2cccnc2C(C)OC)c2c3cc(ccc31)N1CCOC(CC(NC(=O)C(C(C)C)N(C)C(=O)C3(F)CCN(C(=O)C#CC(C)(C)N(C)C)CC3)C(=O)N3CCCC(N3)C(=O)OCC(C)(C)C2)C1	> 10 µM
NC1c2ccccc2OC12CCN(c1cnc3c(N4CCCc5ncccc54)n[nH]c3n1)CC2 (stereo not drawn) + CCn1c(-c2cccnc2C(C)OC)c2c3cc(ccc31)N1CCOC(CC(NC(=O)C(C(C)C)N(C)C(=O)C3(F)CCN(C(=O)C#CC(C)(C)N(C)C)CC3)C(=O)N3CCCC(N3)C(=O)OCC(C)(C)C2)C1	> 10 µM

Data credit: PubChem BioAssay AID2060899
